# experiment: amyloid nucleation score (Sup35N fusion, yeast selection) (log enrichment); library NNK2; higher = more nucleation; inactive = no reads after selection;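 further: zero at mode of non-aggregating sequences after 7 days selection at 30°C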
metric.name: amyloid nucleation score

[
  {
    "biosequence": "RYFDDWVNSRTVKCGWDWYA",
    "amyloid nucleation score": 0.641
  },
  {
    "biosequence": "WTGGFSLQSVHCNQN",
    "amyloid nucleation score": -0.393
  },
  {
    "biosequence": "RVRGSSVSISKLNKCKVVDT",
    "amyloid nucleation score": 3.33
  }
]

Kindly note the recorded amyloid nucleation score for "LYQFSFFGYSYL" , which is 2.39

Kindly note the recorded amyloid nucleation score for "TVSRTVCVASYCLSSEKTSG" , which is -0.899

Kindly note the recorded amyloid nucleation score for "YFGSCPREKLGILYKELLVL" , which is -0.563

Kindly note the recorded amyloid nucleation score for "TTMIAVVRFTRD" , which is 2.07

Kindly note the recorded amyloid nucleation score for "TRVFTSWFVV" , which is 0.342

----------
# experiment: amyloid nucleation score (Sup35N fusion, yeast selection) (log enrichment); library NNK3; higher = more nucleation; inactive = no reads after selection
metric.name: amyloid nucleation score

Some substances with recorded amyloid nucleation score:
[
  {
    "substance": "YLSSIW",
    "amyloid nucleation score": "inactive"
  },
  {
    "substance": "LYETSRSFPH",
    "amyloid nucleation score": "inactive"
  },
  {
    "substance": "YIGFGGDCSVSAFVTCQLGF",
    "amyloid nucleation score": "inactive"
  },
  {
    "substance": "KSWNGQMYCVASGKQKTIMY",
    "amyloid nucleation score": "inactive"
  },
  {
    "substance": "FLIVGFPGNKLGC",
    "amyloid nucleation score": 0.848
  }
]

Note: attention shifts to another entry.
Kindly note the recorded amyloid nucleation score for "VMSKIISTQLVDMR" , which is inactive

----------
# experiment: amyloid nucleation score (Sup35N fusion, yeast selection) (log enrichment); library NNK3; higher = more nucleation; inactive = no reads after selection
metric.name: amyloid nucleation score

[
  {
    "substance": "LSGLFARRNQWWKYGLRRN",
    "amyloid nucleation score": "inactive"
  },
  {
    "substance": "TPGSYLGYCIPRFIGLQYDP",
    "amyloid nucleation score": "inactive"
  },
  {
    "substance": "PRGLVALGFGAFSKGPHGRS",
    "amyloid nucleation score": "inactive"
  },
  {
    "substance": "VDEAEKGVNHLERRGSYSRY",
    "amyloid nucleation score": "inactive"
  },
  {
    "substance": "HNLMYDRYP",
    "amyloid nucleation score": "inactive"
  }
]

Kindly note the recorded amyloid nucleation score for "KTLYTDSS" , which is 0.114

Kindly note the recorded amyloid nucleation score for "NCRFEGLDKSTS" , which is inactive

Kindly note the recorded amyloid nucleation score for "SSDSIKTWWKNTNVICVSGG" , which is inactive

Kindly note the recorded amyloid nucleation score for "FIWQMGNNPVVVAFSCRAGW" , which is 2.56

Kindly note the recorded amyloid nucleation score for "HSQKTTKALRNPSNIQ" , which is inactive

Kindly note the recorded amyloid nucleation score for "WYGDNRGIMYVLGSRINWRY" , which is 1.34

Kindly note the recorded amyloid nucleation score for "SVQFFPDCCQGELTTNTVRS" , which is inactive

Kindly note the recorded amyloid nucleation score for "VPSQLFLHRHHCVVWIEDMW" , which is 0.827

----------
# experiment: amyloid nucleation score (Sup35N fusion, yeast selection) (log enrichment); library NNK2; higher = more nucleation; inactive = no reads after selection
metric.name: amyloid nucleation score
Give the figure only, with no unit attached.

[
  {
    "substance": "HASWIGISLS",
    "amyloid nucleation score": -0.395
  }
]

Kindly note the recorded amyloid nucleation score for "GLFWVCAGGGKVGEYRYSGV" , which is 0.021

Kindly note the recorded amyloid nucleation score for "CKWTSKIWMRLVRKSEMSVE" , which is 1.16

Kindly note the recorded amyloid nucleation score for "VSIYLG" , which is 2.72

Kindly note the recorded amyloid nucleation score for "RFTFFAGAS" , which is 0.367

Kindly note the recorded amyloid nucleation score for "CECETVSLTFEHWCTRGRLG" , which is 5.16

----------
# experiment: amyloid nucleation score (Sup35N fusion, yeast selection) (log enrichment); library NNK3; higher = more nucleation; inactive = no reads after selection
metric.name: amyloid nucleation score

Some sequences with recorded amyloid nucleation score:
[
  {
    "biosequence": "HIWVCLEVGVGKSILVLLLF",
    "amyloid nucleation score": "inactive"
  },
  {
    "biosequence": "SCSSTDDWPGISSG",
    "amyloid nucleation score": "inactive"
  },
  {
    "biosequence": "VMCGNMWVYVKSLDT",
    "amyloid nucleation score": 0.96
  },
  {
    "biosequence": "CKFFQGKEEVS",
    "amyloid nucleation score": "inactive"
  },
  {
    "biosequence": "VCFILFSS",
    "amyloid nucleation score": "inactive"
  }
]

Kindly note the recorded amyloid nucleation score for "FSTWEELLTSHLKCFTAGWG" , which is -0.458

Kindly note the recorded amyloid nucleation score for "THNVSKKWLVGVMCINSGRH" , which is 1.59

Kindly note the recorded amyloid nucleation score for "SVNLFVLMYLFII" , which is 1.9

Kindly note the recorded amyloid nucleation score for "NLKILPAVDHCSDHPMERNE" , which is inactive

----------
# experiment: amyloid nucleation score (Sup35N fusion, yeast selection) (log enrichment); library NNK2; higher = more nucleation; inactive = no reads after selection
metric.name: amyloid nucleation score
Give the figure only, with no unit attached.

Some substances with recorded amyloid nucleation score:
[
  {
    "substance": "TRALDPVSVSRISVRQQPLA",
    "amyloid nucleation score": 1.12
  },
  {
    "substance": "GDKYICELHWRFLGQNSVW",
    "amyloid nucleation score": 4.07
  },
  {
    "substance": "CLAPFHYDQYCKWESDSVSR",
    "amyloid nucleation score": -0.438
  },
  {
    "substance": "CSVSGNLQISFYGNMPINSF",
    "amyloid nucleation score": -0.924
  },
  {
    "substance": "FMTVSDTMFHRIVASPQVPA",
    "amyloid nucleation score": 0.87
  },
  {
    "substance": "YWTNPYEMFISHYNKVFAFF",
    "amyloid nucleation score": -0.436
  },
  {
    "substance": "FNMVNTILMNGPSCWLQSVP",
    "amyloid nucleation score": 0.21
  },
  {
    "substance": "GICHWGLLFTACFIPWRMRG",
    "amyloid nucleation score": 1.37
  }
]

Note: attention shifts to another entry.
Kindly note the recorded amyloid nucleation score for "YCWMRRMKSLPGNMYVLAT" , which is 0.25

----------
# amyloid nucleation score values compiled below
# experiment: amyloid nucleation score (Sup35N fusion, yeast selection) (log enrichment); library NNK1; higher = more nucleation; inactive = no reads after selection
Give the figure only, with no unit attached.

[
  {
    "biosequence": "INFVLMIRMIVSFMNIGRIG",
    "numeric.value": -0.527
  },
  {
    "biosequence": "FMFDNYIGRSGSGGCSGDGR",
    "numeric.value": -0.417
  },
  {
    "biosequence": "NGCFIAFLTMFTYFTCTRVS",
    "numeric.value": -0.76
  },
  {
    "biosequence": "FFTCNGWAGS",
    "numeric.value": -0.614
  },
  {
    "biosequence": "VNQDAGDMKSVRKRAMTRLC",
    "numeric.value": 1.06
  },
  {
    "biosequence": "LHMTFFTPVDLVVQRTDFRL",
    "numeric.value": 0.971
  }
]

Kindly note the recorded amyloid nucleation score for "SIIIGMRLCHHVRSAYTNEL" , which is 3.21

Kindly note the recorded amyloid nucleation score for "QRFRTLCNLVFYLGSKVRET" , which is 0.317

----------
# experiment: amyloid nucleation score (Sup35N fusion, yeast selection) (log enrichment); library NNK2; higher = more nucleation; inactive = no reads after selection
Class assignment keyed on amyloid nucleation score, ranges lower range: < -0.07; middle range: ≥ -0.07 and < 1; upper range: ≥ 1

Hi, small favor: classify "ESFARFIAM" by its amyloid nucleation score when you get a moment.
middle range

Hi, small favor: classify "IIFDNFLEMVAILWLLVCCY" by its amyloid nucleation score when you get a moment.
lower range

----------
# experiment: amyloid nucleation score (Sup35N fusion, yeast selection) (log enrichment); library NNK2; higher = more nucleation; inactive = no reads after selection
metric.name: amyloid nucleation score

Some substances with recorded amyloid nucleation score:
[
  {
    "substance": "FVGTCSHYRGCSVCFITDLL",
    "amyloid nucleation score": 6.13
  },
  {
    "substance": "TILVTKG",
    "amyloid nucleation score": 4.89
  },
  {
    "substance": "YIIGSNEFSEHETDLNGYQT",
    "amyloid nucleation score": -0.938
  },
  {
    "substance": "CKGLNMFLLFSHSHSCMLRG",
    "amyloid nucleation score": -1.35
  },
  {
    "substance": "DGVFRCKKRSSNFSDKSVCM",
    "amyloid nucleation score": 0.641
  }
]

Kindly note the recorded amyloid nucleation score for "FIFKGNQWKVFVFL" , which is 2.83

Kindly note the recorded amyloid nucleation score for "VRFNGLVR" , which is inactive

Kindly note the recorded amyloid nucleation score for "FGRWHYLQRGFKRSGVHFNR" , which is inactive

Kindly note the recorded amyloid nucleation score for "GIMSSELLYYYVRISYESC" , which is -1.21

Kindly note the recorded amyloid nucleation score for "YVQSVHFSSMILQINPGSFN" , which is 4.94

Kindly note the recorded amyloid nucleation score for "FLFMLLSPVSMARLDKVMMG" , which is 0.313

Kindly note the recorded amyloid nucleation score for "GVRWYAMRPEVGYL" , which is 0.155

Kindly note the recorded amyloid nucleation score for "SLYMFLVSALVQSYLLV" , which is -1.4

Kindly note the recorded amyloid nucleation score for "FSRSYVPIMY" , which is 0.759

Kindly note the recorded amyloid nucleation score for "RYYGRPFRVLYRWSVREYYT" , which is 4.39

Kindly note the recorded amyloid nucleation score for "LRYKGMRFLNWMRNLKWDGI" , which is 0.022

Kindly note the recorded amyloid nucleation score for "RTRDPRIFLSVCTGYTRRYY" , which is -1.28
